B1: TRIM55 (parent)
chain: ICPICLEMFTKPVVILPCQHNLCR

variants of: B1; test: protein stability index of a GFP-peptide fusion (GPS, HEK-293T) (PSI 1-6); higher = more stable; conditions: c terminus: a fixed tail appended;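 note: lentivirally expressed fusions sorted by FACS into six bins by GFP to DsRed ratio, PSI derived from sequencing read proportions per bin multiplied by bin number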
measure.name: protein stability index

{"columns": ["chain", "meas.value"],
 "data": [
  ["ICPICLEMFTKPVNILPCQHNLCR", 2.93],
  ["ICPICLEMFTKGVVILPCQHNLCR", 2.25],
  ["ICPICLEMFMKPVVILPCQHNLCR", 2.3],
  ["ICPICLEMFAKPVVILPCQHNLCR", 2.23],
  ["ICPICLEYFTKPVVILPCQHNLCR", 2.82],
  ["IWPICLEMFTKPVVILPCQHNLCR", 1.22],
  ["ICPICLEMFTKPYVILPCQHNLCR", 1.99],
  ["ICPICLEMFTKPVVILPCQHNLCT", 2.71],
  ["ICPICLEMFTKPVVILPVQHNLCR", 1.91],
  ["ICPICLEMFTKPVVILRCQHNLCR", 2.17],
  ["ICPICLEMKTKPVVILPCQHNLCR", 3.63],
  ["ICPICLEMFTKPVVILFCQHNLCR", 2.53],
  ["ICPICLYMFTKPVVILPCQHNLCR", 2.07],
  ["ICPICLEMMTKPVVILPCQHNLCR", 2.51],
  ["ICPECLEMFTKPVVILPCQHNLCR", 2.33],
  ["ICPICLEMFHKPVVILPCQHNLCR", 2.27],
  ["ICPICWEMFTKPVVILPCQHNLCR", 2.77],
  ["ICHICLEMFTKPVVILPCQHNLCR", 2.35],
  ["ICPICLEMFTKPVVILPPQHNLCR", 2.11],
  ["ICPICLEMFTKPVVIEPCQHNLCR", 2.35],
  ["ICPICLEMFTHPVVILPCQHNLCR", 2.4],
  ["ICPICLEMFTKPVVILPCQHILCR", 2.04]
]}
